molecular target: Beta-2 adrenergic receptor (Homo sapiens); experiment: Adrenergic beta2 receptor (ADRB2) small molecule antagonists, cell-based qHTS assay (AID 1963592); conditions: CHO-ADRB2 cells, isoproterenol-stimulated cAMP HTRF ratio, 0.5 h; series mostly up to 92.4 µM; further: on the % scale 0 is the no-effect control and ±100 the full control effect; nearly all actives have a fitted effect of over 50% in size
Records with an inconclusive call do not appear. Active and inactive are the calls of the source. The call rests on the fitted dose curve.
READOUT KIND: activity change, negative = inhibition

c1coc(CNc2ncnc3nc[nH]c23)c1
inactive
C=CCCCCCCCCC(=O)OCCCC
inactive
NC(=O)Cc1cccc(C(=O)c2ccccc2)c1N
inactive
CCCC(C)C(O)CC (configuration not stated)
inactive
NS(=O)(=O)c1ccccc1Cl
inactive
C=C1C[C@]23C[C@@]1(O)CC[C@H]2[C@@]12C=C[C@H](O)[C@@](C)(C(=O)O1)[C@H]2[C@@H]3C(=O)O
inactive

Ask | Need activity change, negative = inhibition of CCCCCCCN , thanks.
Reply | inactive

Ask | Need activity change, negative = inhibition of O=C1NC(c2ccccc2)(c2ccccc2)C(=O)N1COP(=O)(O)O , thanks.
Reply | inactive

Ask | Need activity change, negative = inhibition of NCCCN1CCN(CCCN)CC1 , thanks.
Reply | inactive

Ask | Need activity change, negative = inhibition of O=C(O)Cc1cccc(-c2cc(CCCCCCc3ccc(O[C@H]4O[C@H](CO)[C@@H](O)[C@H](O)[C@@H]4O)c(-c4cccc(CC(=O)O)c4)c3)ccc2O[C@H]2O[C@H](CO)[C@@H](O)[C@H](O)[C@@H]2O)c1 , thanks.
Reply | 2.66% [at 0.349 µM] (inactive)

Ask | Need activity change, negative = inhibition of CC(=O)O[C@@H]1C[C@@H]2CC[C@@]1(C)C2(C)C , thanks.
Reply | inactive
